- Assay system: Peroxisome proliferator-activated receptor gamma (Homo sapiens, UniProt P37231)
- Sequence (P37231 whole entry, the tested form may be a part): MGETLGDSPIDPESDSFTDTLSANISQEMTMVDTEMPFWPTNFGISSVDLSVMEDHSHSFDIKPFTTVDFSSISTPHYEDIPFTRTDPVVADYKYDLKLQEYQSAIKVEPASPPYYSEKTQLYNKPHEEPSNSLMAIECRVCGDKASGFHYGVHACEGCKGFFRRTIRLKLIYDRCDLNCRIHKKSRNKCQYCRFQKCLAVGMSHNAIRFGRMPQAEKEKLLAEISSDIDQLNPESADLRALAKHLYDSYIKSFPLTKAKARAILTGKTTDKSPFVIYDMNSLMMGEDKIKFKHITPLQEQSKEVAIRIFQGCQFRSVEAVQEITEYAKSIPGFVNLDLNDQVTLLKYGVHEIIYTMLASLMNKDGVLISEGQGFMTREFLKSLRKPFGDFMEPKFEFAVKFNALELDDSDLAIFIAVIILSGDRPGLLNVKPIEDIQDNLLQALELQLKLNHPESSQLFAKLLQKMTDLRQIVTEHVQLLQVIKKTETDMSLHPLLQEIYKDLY
- Measurement protocol: Agonist activity at human GAL4 fused PPARgamma-Hinge-LBD expressed in HEK293T cells after 18 hrs by luciferase reporter gene assay
# pEC50 per record follows
Quick note: pEC50 means taking -log10 of the concentration in moles per liter.

The examples below pair each entry with its known result.
O=S(=O)(Nc1cc(Cl)c(Oc2cnc3ccccc3c2)c(Cl)c1)c1ccc(Br)cc1F = 8.70
O=S(=O)(Nc1cc(Cl)c(Oc2cnc3ccccc3c2)c(Cl)c1)c1ccc(Br)c(C(F)(F)F)c1 = 6.02

GET pEC50 where system = Peroxisome proliferator-activated receptor gamma (Homo sapiens, UniProt P37231) and item = `O=S(=O)(Nc1cc(Cl)c(Oc2cnc3ccccc3c2)c(Cl)c1)c1cc(F)c(Br)cc1F`
6.88
